Where do these numbers come from? They come from patent US11413278B2.

Listing of recorded O = Potential toxicity by entry.
System: WI-38 cells
Test: Long-term effects on cell viability (5 days, ATP; morphology, PI imaging)
Format: cell-based
Settings: human, 5 days, 10 μM

- Structure String: "O=C(Nc1nc(C23CC4CC(CC(C4)C2)C3)cs1)C(c1ccccc1)c1ccccc1"
  Experimental System: "WI-38 cells"
  O = Potential toxicity: 0
- Structure String: "O=C(c1ccc([N+](=O)[O-])o1)N1CCc2ccccc21"
  Experimental System: "WI-38 cells"
  O = Potential toxicity: 0
- Structure String: "[O-][n+]1onc2c3nsnc3c(Br)cc21"
  Experimental System: "WI-38 cells"
  O = Potential toxicity: 0
- Structure String: "CCCN1C/C(=C\\c2ccc(F)cc2)C(=O)/C(=C/c2ccc(F)cc2)C1"
  Experimental System: "WI-38 cells"
  O = Potential toxicity: 1
- Structure String: "COc1ccc(C(=O)/C=C/c2ccc(F)cc2)c(OC)c1"
  Experimental System: "WI-38 cells"
  O = Potential toxicity: 0
- Structure String: "O=C(Nc1cccc(C(F)(F)F)c1)c1ccc([N+](=O)[O-])o1"
  Experimental System: "WI-38 cells"
  O = Potential toxicity: 0
- Structure String: "Cc1ccc(NC(=O)c2ccc([N+](=O)[O-])o2)cc1C"
  Experimental System: "WI-38 cells"
  O = Potential toxicity: 1
